Experiment: Tmax in male Wistar rat at 10 mg/kg, ip
Format: ADME, organism-based
Conditions: in vivo
RECORDED ENDPOINT: Tmax

>>> df
                   structure_as_smiles  recorded_endpoint  value_measured
0  OCCCNc1ccnc2c1nc(-c1ccco1)n2C1CCCC1               Tmax          15 min

###

Molecular target: High affinity 3',5'-cyclic-AMP phosphodiesterase 7A (Homo sapiens, UniProt Q13946)
Sequence (Q13946 whole entry): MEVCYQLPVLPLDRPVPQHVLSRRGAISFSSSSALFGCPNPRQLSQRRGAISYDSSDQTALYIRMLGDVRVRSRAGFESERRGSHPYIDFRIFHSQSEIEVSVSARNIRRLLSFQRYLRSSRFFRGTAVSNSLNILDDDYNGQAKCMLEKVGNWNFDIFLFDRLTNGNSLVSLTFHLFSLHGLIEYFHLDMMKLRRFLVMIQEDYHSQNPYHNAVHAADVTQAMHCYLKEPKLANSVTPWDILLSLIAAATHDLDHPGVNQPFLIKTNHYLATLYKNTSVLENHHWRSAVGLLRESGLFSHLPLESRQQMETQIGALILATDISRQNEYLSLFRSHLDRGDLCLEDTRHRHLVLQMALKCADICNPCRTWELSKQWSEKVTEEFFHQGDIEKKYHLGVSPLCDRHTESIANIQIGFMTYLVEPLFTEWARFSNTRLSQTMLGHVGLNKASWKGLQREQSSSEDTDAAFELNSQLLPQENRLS
Assay: Inhibition of human recombinant PDE7A using cAMP as substrate incubated for 20 mins measured by Kinase Glo reagent based microplate reader assay
RECORDED ENDPOINT: IC50

>>> print(df.to_string())
                         structure_as_smiles  value_measured
 0    CCCCCn1c(-c2ccco2)nc2c(N(C)CCCO)ccnc21         18.8 µM
 1           CCCCCn1c(-c2ccco2)nc2c(N)ccnc21        > 200 µM
 2  CCCCCn1c(-c2ccccc2)nc2c(NCCc3cccs3)nccc21        > 200 µM
 3      COCCCNc1ccnc2c1nc(-c1ccco1)n2C1CCCC1         90.5 µM
 4       COCCNc1ccnc2c1nc(-c1ccco1)n2C1CCCC1          119 µM
 5  CCCCCn1c(-c2ccccc2)nc2c(NCc3ccccc3)nccc21        > 200 µM
 6       OCCCNc1ccnc2c1nc(-c1ccco1)n2C1CCCC1           88 µM
 7    CCCCCn1c(-c2ccco2)nc2c(N(C)CCCO)nccc21         7.24 µM
 8  CCCCCn1c(-c2ccc([N+](=O)[O-])cc2)nc2c(N)ccnc21        > 200 µM
 9     Cc1ccc([N+](=O)[O-])cc1S(=O)(=O)N(C)C         2.32 µM
10      CCCCCn1c(-c2ccccc2)nc2c(NCCCO)ccnc21        > 200 µM
11      CCCCCn1c(-c2ccc(OC)cc2)nc2c(N)ccnc21        > 200 µM

###

Test: AUC in female Lewis rat at 10 mg/kg, iv
Type: ADME, organism-based
Parameters: dose 10 mg/kg
Conditions: in vivo
RECORDED ENDPOINT: AUC

>>> print(df.to_string())
                   structure_as_smiles  value_measured
0  OCCCNc1ccnc2c1nc(-c1ccco1)n2C1CCCC1    2530 ng·h/mL

###

Collected IC50 values appear next to each entry.
Biological target: High affinity 3',5'-cyclic-AMP phosphodiesterase 7A (Homo sapiens)
Assay: Inhibition of human recombinant PDE7A using cAMP as substrate incubated for 20 mins measured by Kinase Glo reagent based microplate reader assay
RECORDED ENDPOINT: IC50

>>> print(df.to_string())
                        structure_as_smiles  value_measured
0      CCCCCn1c(-c2ccco2)nc2c(NCCCOC)nccc21         83.3 µM
1  CCCCCn1c(-c2ccccc2)nc2c(NCc3ccccc3)ccnc21        > 200 µM
2      COCCCNc1nccc2c1nc(-c1ccco1)n2C1CCCC1          142 µM
3       Nc1ccnc2c1nc(-c1ccccc1)n2CCN1CCCCC1        > 200 µM
4      CCCCCn1c(-c2ccco2)nc2c(NCCCOC)ccnc21         34.2 µM
5  CCCCCn1c(-c2ccco2)nc2c(NCc3ccccc3)nccc21        > 200 µM
6  CCCCCn1c(-c2ccccc2)nc2c(NCCc3cccs3)ccnc21        > 200 µM
7  CCCCCn1c(-c2ccco2)nc2c(NCc3ccccc3)ccnc21        > 200 µM

The reported measurements were obtained from ChEMBL document CHEMBL4732047.
